# Test system: M14 melanoma
# assay_summary: NCI tumour cell line growth inhibition, 48 h
measurement_label: TGI

As a guide, the following entries are already answered.
INSERT INTO results (compound, measurement_label, value) VALUES
  ('Oc1ccc(Cc2cc(Cc3ccc(O)cc3)cc(Cc3ccc(O)cc3)c2)cc1', 'TGI', '> 50 µM'),
  ('COc1cccc(Nc2nc(-c3cccs3)nc3cc(OC)c(OC)cc23)c1', 'TGI', '82.2 µM'),
  ('S=C(N/N=C(/c1ccccc1)c1ccccn1)N(Cc1ccccn1)Cc1ccccn1', 'TGI', '2.97 µM'),
  ('Oc1ccc2c(c1)c1c(n2CCN2CCOCC2)-c2ccccc2CC1', 'TGI', '57.3 µM'),
  ('COc1ccc(C)cc1-c1cc(Sc2ccccc2)c(-c2cc(C)ccc2OC)o1', 'TGI', '> 31.6 µM');

Input Nc1nc(SCCC/C=C/I)nc2c1ncn2C1OC(COP(=O)(O)O)C(O)C1O (stereo unspecified) . Output TGI: > 100 µM

Input C=C1C(=O)O[C@H]2[C@H]1CC/C(COC(=O)NCc1ccc(Cn3c(=O)sn(-c4ccc(OC)cc4)c3=O)cc1)=C\CC[C@@]1(C)O[C@@H]21 . Output TGI: 5.65 µM

Input CC(=O)Nn1c(=S)[nH]c2ccccc21 . Output TGI: > 100 µM

Input C/C(CCn1[nH]c(=O)ccc1=O)=N\NC(=O)C(=O)NN . Output TGI: > 100 µM

Input Nc1nccc(-c2c[nH]c3cc(Br)ccc23)n1 . Output TGI: 43.9 µM

Input CCOC(=O)C1=C(C)N(c2ccc(F)cc2F)[C@]2(C#N)C(O)=C(Cl)C(Cl)=C(O)[C@]12C#N . Output TGI: > 100 µM

Input O=C(/C=C/c1ccc([N+](=O)[O-])cc1)c1ccc(NCc2nc3ccccc3[nH]2)cc1 . Output TGI: 24 µM

Input O=C1CCC2(c3ccc(Cl)cc3)Nc3ccncc3N12 (stereo unspecified) . Output TGI: > 10 µM

Input Nn1c(-c2ccccc2)n[nH]c1=O . Output TGI: > 100 µM

###

# Test system: COLO 205 colon
# assay_summary: NCI tumour cell line growth inhibition, 48 h
// reported TGI per item

As a guide, the following entries are already answered.
INSERT INTO results (molecule, value) VALUES
  ('CCn1c(-c2nonc2N)nc2c(C#CC(C)(C)O)nc(OC[C@@H](N)c3ccccc3)cc21', '8.31 µM'),
  ('O=[N+]([O-])c1cc(C=NC23CC4CC(CC(C4)C2)C3)ccc1Cl', '> 70.3 µM'),
  ('Cc1cc(-c2nc3ccc(F)cc3s2)ccc1NC(=O)[C@H](C)N', '23.8 µM'),
  ('CC(=O)Nn1c(=S)[nH]c2ccccc21', '> 100 µM'),
  ('COc1ccc(CCN=C2NC(=O)/C(=C/c3ccc4ncccc4c3)S2)cc1', '> 25 µM');

Input O=[N+]([O-])c1ccc2[nH]nc(OCc3ccccc3Cl)c2c1 . Output TGI: > 100 µM

Input c1ccc2c3[nH]c(c2c1)=Nc1ccc(cc1)-c1nc2cc(ccc2o1)N=c1[nH]c(c2ccccc12)=Nc1ccc2nc(oc2c1)-c1ccc(cc1)N=3 . Output TGI: > 100 µM

Input COc1cc(S(=O)(=O)Nc2nc(-c3ccc(N4C(=O)C(CC(=O)O)SC4c4cccs4)cc3)cs2)ccc1Cl (stereo unspecified) . Output TGI: > 100 µM

Input O=C1CCCCC1CN1CCCCC1 (stereo unspecified) . Output TGI: > 100 µM

Input c1ccc2c(c1)Cn1c-2nc2ccccc21 . Output TGI: > 100 µM

Input O=S(=O)(N/N=C/c1cccc(/C=N/NS(=O)(=O)c2ccccc2)c1)c1ccccc1 . Output TGI: > 100 µM

Input CCN1C(=O)N(c2ccccc2)C2NC(=S)N(/N=C/C=C/c3ccccc3OC)C21 (stereo unspecified) . Output TGI: 0.487 µM

Input Nc1ccccc1SC(CC(=O)c1ccccc1)c1cccc([N+](=O)[O-])c1 (stereo unspecified) . Output TGI: 34.7 µM

###

# System: OVCAR-4 ovarian
# assay_summary: NCI tumour cell line growth inhibition, 48 h
// reported TGI per item

INSERT INTO measurements (compound, value) VALUES
  ('S=C(N/N=C(/c1ccccc1)c1ccccn1)N(Cc1ccccn1)Cc1ccccn1', '1.73 µM');

Input Cn1c(=O)c2c(nc3n2CC(C(=O)O)N3)n(C)c1=O (stereo not given) . Output TGI: > 100 µM

Input Cc1cc(C)nc(NS(=O)(=O)c2ccc(NC(=O)c3ccc4nc5ccccc5c(Nc5ccc(S(N)(=O)=O)cc5)c4c3)cc2)n1 . Output TGI: > 100 µM

Input Cc1ccc(NC(=O)c2ccc(OP(=O)(O)Nc3ccc(C)cc3)cc2)cc1 . Output TGI: > 100 µM

Input CCc1c(OC(C)=O)c2c(NC3OCC(OC(C)=O)C(OC(C)=O)C3OC(C)=O)nc(SC)nc2oc1=O (stereo not given) . Output TGI: > 100 µM

Input COc1cccc(C2SC(N)=Nc3c2c(C)nn3C(=O)c2ccccc2O)c1 (stereo not given) . Output TGI: > 8.45 µM

Input COc1ccc(C)cc1-c1cc(Sc2ccccc2)c(-c2cc(C)ccc2OC)o1 . Output TGI: > 31.6 µM

Input CC(=O)Nn1c(=S)[nH]c2ccccc21 . Output TGI: > 100 µM

Input C#CCn1c(=O)c2ccccc2n(CC#C)c1=O . Output TGI: > 10 µM

Input NC(=O)c1ccccc1NC(=O)C(=O)C(C(=O)c1ccc(Cl)c(Cl)c1)C1OC(=O)c2ccccc21 (stereo not given) . Output TGI: > 100 µM

###

# System: SF-268 CNS
# assay_summary: NCI tumour cell line growth inhibition, 48 h
measurement_label: TGI

As a guide, the following entries are already answered.
INSERT INTO results (molecule, target_entity, measurement_label, value) VALUES
  ('Oc1[nH]c2ccccc2c1N=Nc1nc(-c2ccc(Br)cc2)cs1', 'SF-268 CNS', 'TGI', '46.8 µM'),
  ('CC(=O)O/N=C(/C)c1ccccc1O', 'SF-268 CNS', 'TGI', '> 100 µM'),
  ('O=C(N/N=C/c1ccc(Cl)cc1)c1c(Cl)c(Cl)c(Cl)c(Cl)c1-c1nc2ccccc2[nH]1', 'SF-268 CNS', 'TGI', '> 100 µM'),
  ('Nc1nc(SCCC/C=C/I)nc2c1ncn2C1OC(COP(=O)(O)O)C(O)C1O (configuration not stated)', 'SF-268 CNS', 'TGI', '> 100 µM'),
  ('CCN(C(=O)N1CCN(c2cc3c(cc2F)c(=O)c(C(=O)O)cn3C2CC2)CC1)c1nc(-c2ccc(Cl)cc2)cs1', 'SF-268 CNS', 'TGI', '> 100 µM'),
  ('O=CNc1ccc2c(c1)C(=O)c1ccccc1-2', 'SF-268 CNS', 'TGI', '> 100 µM'),
  ('Nc1n[nH]c2cc(F)c([C@@H]3Nc4ccc5[nH]ncc5c4[C@H]4C5CCC(C5)[C@@H]34)cc12 (some centres not stated)', 'SF-268 CNS', 'TGI', '14.9 µM'),
  ('CC(=O)NNc1nc(C)c(C(=O)/C=C/c2ccc(NC(C)=O)cc2)s1', 'SF-268 CNS', 'TGI', '> 100 µM'),
  ('Cc1ccnc(NS(=O)(=O)c2ccc(N=[N+]=[N-])cc2)n1', 'SF-268 CNS', 'TGI', '> 100 µM'),
  ('O=[N+]([O-])c1cc(C=NC23CC4CC(CC(C4)C2)C3)ccc1Cl', 'SF-268 CNS', 'TGI', '> 85.9 µM');

Input Cc1cc(-c2nc3ccc(F)cc3s2)ccc1NC(=O)[C@H](C)N . Output TGI: 22.8 µM

Input C/C(CCn1[nH]c(=O)ccc1=O)=N\NC(=O)C(=O)NN . Output TGI: > 100 µM

###

// reported GI50 per item
# Test system: SN12C renal
# assay_summary: NCI tumour cell line growth inhibition, 48 h

As a guide, the following entries are already answered.
INSERT INTO results (chemical_string, target_entity, measurement_label, value) VALUES
  ('COc1cccc(-c2nc(-c3ccc(NC(=O)OC(C)C)cc3)[nH]c2-c2ccnc(Br)c2)c1', 'SN12C renal', 'GI50', '2.94 µM'),
  ('COc1cc(/C(C#N)=C/c2nc3c(N4CCOCC4)nc(Cl)nc3n2C)cc(OC)c1OC', 'SN12C renal', 'GI50', '< 0.01 µM');

Input O=c1ccc2ccccc2cc1[O-].O=c1ccc2ccccc2cc1[O-].[O]=[U+2]=[O] . Output GI50: 23.5 µM

Input Cc1ccc(-n2c3nc(=O)[nH]c(=O)c-3cc3cc([N+](=O)[O-])ccc32)cc1 . Output GI50: 20.6 µM

From: PubChem BioAssay (NCI)
